# TARGET: SARS-CoV-2 3CL-protease (Severe acute respiratory syndrome coronavirus 2 (2019-nCoV) (SARS-CoV-2), UniProt P0DTD1)
Field: IC50. Provide a value for each of the compounds that follow.

Consider the reported IC50 for these compounds:
COMPOUND	VALUE_REPORTED
CC(=O)N[C@@H](Cc1cc(F)c(F)cc1F)C(=O)N(C)[C@@H](CC(C)(C)C)C(=O)N1C[C@]2(C[C@H]1C#N)C(=O)Nc1ccccc12	< 100 nM
CC(C)(C)C[C@H](NC(=O)[C@H](CC1CC1)NC(=O)N1CCOCC1)C(=O)N1C[C@]2(C[C@H]1C#N)C(=O)Nc1ccccc12	< 100 nM
CC(C)(C)C(NC(=O)c1ccc(F)cc1)C(=O)N1CCC[C@H]1C(=O)N1C[C@]2(C[C@H]1C#N)C(=O)Nc1ccccc12 (stereo partly drawn)	> 1000 nM

Batch of 4 compounds: report IC50 for each.
1. CN(C(=O)[C@H](CC1CC1)NC(=O)C1COC1)[C@@H](CC(C)(C)C)C(=O)N1C[C@]2(C[C@H]1C#N)C(=O)Nc1ccccc12
2. COC(=O)N[C@@H](Cc1ccc(F)cc1)C(=O)N(C)[C@@H](CC(C)C)C(=O)N1C[C@]2(C[C@H]1C#N)C(=O)Nc1ccccc12
3. CC(C)C[C@@H](C(=O)N1C[C@]2(C[C@H]1C#N)C(=O)Nc1ccccc12)N(C)C(=O)[C@H](Cc1ccc(F)cc1)NC(=O)c1cnccn1
4. C[C@H](NC(=O)C(F)(F)F)C(=O)N(C)[C@@H](CC(C)(C)C)C(=O)N1C[C@]2(C[C@H]1C#N)C(=O)Nc1ccccc12

Reply:
1. < 100 nM
2. < 100 nM
3. < 100 nM
4. < 100 nM

Batch of 8 compounds: report IC50 for each.
1. CC(C)[C@@H](NC(=O)c1cc2c(F)cc(F)c(F)c2[nH]1)C(=O)N[C@@H](CC(C)(C)C)C(=O)N1C[C@]2(C[C@H]1C#N)C(=O)Nc1ccccc12
2. CC(C)C[C@@H](C(=O)N1C[C@]2(C[C@H]1C#N)C(=O)Nc1ccccc12)N1CC[C@H](NC(=O)OC(C)(C)C)C1=O
3. CC(C)C[C@@H](C(=O)N1C[C@]2(C[C@H]1C#N)C(=O)Nc1ccccc12)N(C)C(=O)[C@H](CC(C)(C)C)NC(=O)C(F)(F)F
4. CC(C)(C)C[C@H](NC(=O)[C@H](CC1CC1)N1CCOC1=O)C(=O)N1C[C@]2(C[C@H]1C#N)C(=O)Nc1ccccc12
5. CC(C)(C)C[C@H](NC(=O)[C@H](CC1CC1)NC(=O)C1(c2ccccc2)CC1)C(=O)N1C[C@]2(C[C@H]1C#N)C(=O)Nc1ccccc12
6. CC(C)[C@H](NC(=O)C(F)(F)F)C(=O)N[C@@H](CC(C)(C)C)C(=O)N1C[C@]2(C[C@H]1C#N)C(=O)Nc1ccccc12
7. CC(C)C(=O)N[C@@H](C)C(=O)N(C)[C@@H](CC(C)(C)C)C(=O)N1C[C@]2(C[C@H]1C#N)C(=O)Nc1ccccc12
8. COC(=O)N[C@H](C(=O)N(C)[C@@H](CC(C)C)C(=O)N1C[C@]2(C[C@H]1C#N)C(=O)Nc1ccccc12)C1CCCCC1

Reply:
> 1000 nM
100 to 1000 nM
< 100 nM
< 100 nM
< 100 nM
< 100 nM
< 100 nM
< 100 nM

Batch of 8 compounds: report IC50 for each.
1. CC(C)C[C@H](NC(=O)[C@@H](NC(=O)OCc1ccccc1)C(C)(C)C)C(=O)N1C[C@]2(C[C@H]1C#N)C(=O)Nc1ccccc12
2. CC(C)OC(=O)N[C@@H](CC1CC1)C(=O)N(C)[C@@H](CC(C)(C)C)C(=O)N1C[C@]2(C[C@H]1C#N)C(=O)Nc1ccccc12
3. CN(C(=O)[C@@H](NCc1cc(F)c(F)cc1F)C(C)(C)C)[C@@H](Cc1ccccc1)C(=O)N1C[C@]2(C[C@H]1C#N)C(=O)Nc1ccccc12
4. CN(C(=O)[C@@H](NC(=O)OCc1ccccc1)C(C)(C)C)[C@@H](Cc1ccccc1)C(=O)N1C[C@]2(C[C@H]1C#N)C(=O)Nc1ccccc12
5. CC(C)(C)C(N)C(=O)N1CCC[C@H]1C(=O)N1C[C@]2(C[C@H]1C#N)C(=O)Nc1ccccc12 (stereo partly drawn)
6. CC(C)(C)C[C@H](NC(=O)[C@H](Cc1ccc(F)cc1)NC(=O)c1cnccn1)C(=O)N1C[C@]2(C[C@H]1C#N)C(=O)Nc1ccccc12
7. CN(C(=O)[C@H](CC1CC1)NS(=O)(=O)c1ccn(-c2ccc(F)cc2)n1)[C@@H](CC(C)(C)C)C(=O)N1C[C@]2(C[C@H]1C#N)C(=O)Nc1ccccc12
8. CC(C)OC(=O)NC(C(=O)N1CCC[C@H]1C(=O)N1C[C@]2(C[C@H]1C#N)C(=O)Nc1ccccc12)C(C)(C)C (stereo partly drawn)

Reply:
1. < 100 nM
2. < 100 nM
3. < 100 nM
4. < 100 nM
5. > 1000 nM
6. < 100 nM
7. < 100 nM
8. > 1000 nM

The recorded IC50 for CC(C)C[C@@H](C(=O)N1C[C@]2(C[C@H]1C#N)C(=O)Nc1ccccc12)N(C)C(=O)[C@H](Cc1ccc(F)cc1)NC(=O)c1ccn(C)n1 is < 100 nM

Values compiled from patent US11325916B1.
